These measurements were taken from PubChem BioAssay AID1159580.

# Protocol: chemical genetic growth profiling, strain panel (AID 1159580);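 note: tested at 20 µM; growth read once vehicle control cultures reached saturation at 30 °C; 1 = growth at the plate median or of vehicle wells; lower values mean less growth of the strain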
# Setup conditions: S. cerevisiae deletion strains, growth OD, locus YOL006C, strain TOP1, hits give low values
The whole screen tested about 5,500 compounds, of which about 2,000 (36%) were called active. Not shown: some 18% with an inconclusive outcome. The list shows a part of the results.
In plain terms, low normalized growth, meaning strictly below 1, gives Y, and everything else gives N.

Known results for molecules:
{"Molecular string": "C=C[C@H]1CN2CC[C@H]1C[C@H]2[C@H](O)c1ccnc2ccccc12", "Assigned label": "N"}
{"Molecular string": "COC(=O)c1cccc([N+](=O)[O-])c1-c1c(C(=O)OC)cccc1[N+](=O)[O-]", "Assigned label": "N"}

Next molecule, please.
In the record for `O=[N+]([O-])c1cc(C(F)(F)F)cc([N+](=O)[O-])c1Oc1ccc(Cl)c(Cl)c1` , is normalized growth less than 1?
Y

###

Assignment: determine reported normalized growth for the given compounds.
# Protocol: chemical genetic growth profiling, strain panel (AID 1159580);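 note: tested at 20 µM; growth read once vehicle control cultures reached saturation at 30 °C; 1 = growth at the plate median or of vehicle wells; lower values mean less growth of the strain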
# Setup conditions: S. cerevisiae deletion strains, growth OD, locus YLR330W, strain CHS5, hits give low values
Screen size: about 5,500 compounds; about 2,000 (36%) were called active. Roughly 18% stayed inconclusive and do not appear here. The list shows a part of the results.

{"Compound": "C=C(C)C1Cc2c(ccc3c(=O)c4c(oc23)COc2cc(OC)c(OC)cc2-4)O1 (centres undefined)", "normalized growth": "1 (inactive)"}
{"Compound": "COc1ccccc1OCC(O)COC(N)=O (centres undefined)", "normalized growth": "0.991 (inactive)"}
{"Compound": "CC[C@H]1OC(=O)[C@H](C)[C@@H](O[C@H]2C[C@@](C)(OC)[C@@H](O)[C@H](C)O2)[C@H](C)[C@@H](O[C@@H]2O[C@H](C)C[C@H](N(C)C)[C@H]2O)[C@](C)(O)C[C@@H](C)/C(=N/OCOCCOC)[C@H](C)[C@@H](O)[C@]1(C)O", "normalized growth": "1.01 (inactive)"}

Just so you know, measured normalized growth for `COc1cc(O)ccc1C(C)=O` came out at 0.991 (inactive)

###

# Protocol: chemical genetic growth profiling, strain panel (AID 1159580);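 note: tested at 20 µM; growth read once vehicle control cultures reached saturation at 30 °C; 1 = growth at the plate median or of vehicle wells; lower values mean less growth of the strain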
# Setup conditions: S. cerevisiae deletion strains, growth OD, locus YDR101C, strain arx1, hits give low values
The campaign covered roughly 5,500 compounds. About 2,000 (36%) were called active. Not shown: some 18% with an inconclusive outcome. Some of the results follow.
Property label: normalized growth
Numbers only.

The following compounds have reported results that may help.
{"Compound": "CNC(=O)Oc1ccccc1OC(C)C", "normalized growth": 0.983}
{"Compound": "CC(=O)OCC1=C(C(=O)O)N2C(=O)[C@@H](NC(=O)CSc3ccncc3)[C@H]2SC1", "normalized growth": 0.976}
{"Compound": "Cn1cnc2c1c(=O)[nH]c(=O)n2C", "normalized growth": 1.01}
{"Compound": "Cn1c(=O)[nH]c2ncn(C)c2c1=O", "normalized growth": 1}

Go through the list and state normalized growth for each entry.
1. Cn1c(=O)[nH]c2nc[nH]c2c1=O
2. COC(=O)CC1C(C)(C)C(=O)C2CC3(O)C4=CC(=O)OC(c5ccoc5)C4(C)CCC3C1(C)C2=O (stereo not given)
3. CC(=O)CCCCn1c(=O)c2c(ncn2C)n(C)c1=O
4. Cc1cc(O)c2c(c1)C(=O)c1cccc(O)c1C2=O
5. Cn1c(=O)c2c(ncn2CCO)n(C)c1=O
6. CNC(C)[C@@H]1CC[C@@H](N)[C@@H](OC2[C@@H](N)C[C@@H](N)[C@H](OC3OC[C@](C)(O)[C@H](NC)[C@H]3O)[C@H]2O)O1 (stereo not given in full)

1: 0.995; 2: 0.997; 3: 1.01; 4: 0.975; 5: 1.01; 6: 0.992
